Values compiled from ChEMBL document CHEMBL1201861.

- System: NCI-H719;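 also: growth inhibition of the cultured cell line, read out with a viability assay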
- procedureSummary: cells
- Type: functional, cell-based
- conditionSet: Homo sapiens
- Description: SANGER: Inhibition of human NCI-H719 cell growth in a cell viability assay.
pIC50: −log10 of the molar value.
measuredQuantity: pIC50

// CCC1=C[C@@H]2CN(C1)Cc1c([nH]c3ccccc13)[C@@](C(=O)OC)(c1cc3c(cc1OC)N(C)[C@H]1[C@@](O)(C(=O)OC)[C@H](OC(C)=O)[C@]4(CC)C=CCN5CC[C@]31[C@@H]54)C2 [VINORELBINE] : pIC50 value = < 7.19

// C=C1C(=O)O[C@@H]2C3O[C@]3(C)CC/C=C(\C)CC[C@@H]12 (stereo partly specified) : pIC50 value = < 5.30

// CN(c1ncccc1CNc1nc(Nc2ccc3c(c2)CC(=O)N3)ncc1C(F)(F)F)S(C)(=O)=O [PF-00562271] : pIC50 value = < 5.59

// Cc1cc([C@@H](C)Nc2ccccc2C(=O)O)c2nc(N3CCOCC3)cc(=O)n2c1 [AZD-6482] : pIC50 value = < 5.29

// O=C(/C=C/c1ccccc1)NC(NC(=S)Nc1cccc2cccnc12)C(Cl)(Cl)Cl (stereo unspecified) [SALUBRINAL] : pIC50 value = < 4.80

// Cn1cncc1[C@@](N)(c1ccc(Cl)cc1)c1ccc2c(c1)c(-c1cccc(Cl)c1)cc(=O)n2C [TIPIFARNIB] : pIC50 value = 4.98

====

- Tested on: NY
- procedureSummary: cells
- Type: functional, cell-based, Homo sapiens
- conditionSet: Homo sapiens, NY
- Description: SANGER: Inhibition of human NY cell growth in a cell viability assay.
pIC50: −log10 of the molar value.
Give pIC50 for every item shown.

Summary line: Cc1ccc(Nc2nccc(N(C)c3ccc4c(C)n(C)nc4c3)n2)cc1S(N)(=O)=O , NY, reported pIC50 = 5.73

Summary line: COc1ccc(C2=N[C@@H](c3ccc(Cl)cc3)[C@@H](c3ccc(Cl)cc3)N2C(=O)N2CCNC(=O)C2)c(OC(C)C)c1 , NY, reported pIC50 = < 5.10

Summary line: O=C(NOCC1CC1)c1ccc(F)c(F)c1Nc1ccc(I)cc1Cl , NY, reported pIC50 = < 5.00

Summary line: CN(c1ncccc1CNc1nc(Nc2ccc3c(c2)CC(=O)N3)ncc1C(F)(F)F)S(C)(=O)=O , NY, reported pIC50 = < 5.59

Summary line: O=c1cc(-c2cccc3c2Sc2ccccc2S3)oc(N2CCOCC2)c1 , NY, reported pIC50 = < 5.00

Summary line: Nc1ccn([C@@H]2O[C@H](CO)[C@@H](O)[C@@H]2O)c(=O)n1 , NY, reported pIC50 = < 5.70

Summary line: CN(Cc1cnc2nc(N)nc(N)c2n1)c1ccc(C(=O)N[C@@H](CCC(=O)O)C(=O)O)cc1 [METHOTREXATE] , NY, reported pIC50 = < 6.70

Summary line: C=CCc1cccc(/C=N/NC(=O)CN2CCN(Cc3ccccc3)CC2)c1O , NY, reported pIC50 = < 5.59

Summary line: C=CCNC1=C2C[C@@H](C)C[C@H](OC)[C@H](O)[C@@H](C)/C=C(\C)[C@H](OC(N)=O)[C@@H](OC)/C=C\C=C(/C)C(=O)NC(=CC1=O)C2=O , NY, reported pIC50 = < 6.00

Summary line: COc1ccc(-c2ccc3c(N4CCOC[C@@H]4C)nc(N4CCOC[C@@H]4C)nc3n2)cc1CO , NY, reported pIC50 = < 5.70

Summary line: CN(C)C/C=C/C(=O)Nc1cc2c(Nc3ccc(F)c(Cl)c3)ncnc2cc1O[C@H]1CCOC1 , NY, reported pIC50 = < 6.30
